Recorded values, source paper PMC7155212.

Please go through the items and note down their IC50.
Biological target: BChE from equine serum (Equus caballus, UniProt P81908)
Sequence (P81908 whole entry): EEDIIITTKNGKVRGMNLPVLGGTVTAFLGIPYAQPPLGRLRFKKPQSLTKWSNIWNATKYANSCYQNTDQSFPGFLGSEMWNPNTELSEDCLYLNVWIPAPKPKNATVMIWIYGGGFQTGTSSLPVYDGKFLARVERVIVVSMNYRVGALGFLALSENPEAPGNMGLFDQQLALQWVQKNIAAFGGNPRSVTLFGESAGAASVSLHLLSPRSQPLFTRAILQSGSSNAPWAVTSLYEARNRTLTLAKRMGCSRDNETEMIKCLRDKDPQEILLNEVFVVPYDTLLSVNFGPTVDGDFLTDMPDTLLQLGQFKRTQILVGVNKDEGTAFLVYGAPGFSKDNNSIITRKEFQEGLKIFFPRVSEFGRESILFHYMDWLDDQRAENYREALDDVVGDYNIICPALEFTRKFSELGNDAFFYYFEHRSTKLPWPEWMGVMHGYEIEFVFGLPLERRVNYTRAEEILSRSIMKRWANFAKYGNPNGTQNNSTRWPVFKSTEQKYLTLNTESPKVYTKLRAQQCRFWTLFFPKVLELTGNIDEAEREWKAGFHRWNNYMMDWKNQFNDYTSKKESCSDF
Assay: biochemical
Type: biochemical
Settings: equine serum BChE, Ellman method, mean ± SD (n = 3); read-out: IC50 value BuChE inhibitory activity

compound: COc1cc(C2C(=O)Oc3cc(O)ccc32)cc(OC)c1OC (centres unmarked)
IC50: > 200 µM
--
compound: COc1ccc(C2C(=O)Oc3cc(O)ccc32)cc1 (centres unmarked)
IC50: > 200 µM
--
compound: COc1cc2c(cc1O)C(c1cc(OC)c(OC)c(OC)c1)C(=O)O2 (centres unmarked) [Compound 21]
IC50: 146 µM
--
compound: COc1ccc2c(c1O)OC(=O)C2c1cc(OC)c(OC)c(OC)c1 (centres unmarked)
IC50: > 200 µM

Now for a further compound.
Name the recorded IC50 for COc1cc2c(cc1O)C(c1cc(OC)c(OC)c(OC)c1)C(=O)O2 (centres unmarked) [Compound 23] . > 200 µM

* * *

Molecular target: BChE from equine serum (Equus caballus)
Test: biochemical
Assay type: biochemical
pIC50: −log10 of the molar value.
property-name: pIC50

molecule: COc1ccc2c(c1)OC(=O)C2c1ccc(OC)c(OC)c1 (centres unmarked)
pIC50: < 3.70

Now for a further molecule.
Name the recorded pIC50 for COc1ccc(C2C(=O)Oc3cc(OC)c(OC)cc32)cc1OC (centres unmarked) . < 3.70

* * *

Biological target: BChE from equine serum (Equus caballus)
Experiment: biochemical
Format: biochemical
Details: equine serum BChE, Ellman method, mean ± SD (n = 3); read-out: IC50 value BuChE inhibitory activity
pIC50: −log10 of the molar value.
property-name: pIC50

Take a look at these entries with their results.
compound: COc1ccc2c(c1)C(c1ccc(OC)c(OC)c1OC)C(=O)O2 (stereo not shown) [Compound 17]
endpoint-value: < 3.70
--
compound: COc1ccc(C2C(=O)Oc3cc(OC)c(O)cc32)cc1 (stereo not shown) [Compound 7]
endpoint-value: 4.48
--
compound: COc1ccc(C2C(=O)Oc3ccc(OC)cc32)cc1 (stereo not shown) [Compound 4]
endpoint-value: < 3.70
--
compound: COc1ccc(C2C(=O)Oc3c2ccc(OC)c3O)cc1 (stereo not shown) [Compound 8]
endpoint-value: < 3.70
--
compound: COc1ccc(C2C(=O)Oc3cc(OC)ccc32)cc1 (stereo not shown) [Compound 3]
endpoint-value: < 3.70
--
compound: COc1ccc(C2C(=O)Oc3cc(OC)c(OC)cc32)cc1 (stereo not shown) [Compound 10]
endpoint-value: < 3.70

I would be grateful if you could provide pIC50 for each of the following entries.
1. COc1ccc(C2C(=O)Oc3c2ccc(OC)c3O)cc1OC (stereo not shown) [Compound 12]
2. COc1ccc2c(c1)C(c1cc(OC)c(OC)c(OC)c1)C(=O)O2 (stereo not shown) [Compound 15]
3. COc1ccc(C2C(=O)Oc3c2ccc(O)c3O)cc1 (stereo not shown) [Compound 5]
4. COc1cc(C2C(=O)Oc3ccc(O)cc32)cc(OC)c1OC (stereo not shown) [Compound 14]

1: 3.74; 2: < 3.70; 3: < 3.70; 4: 3.89

* * *

Please go through the items and note down their IC50.
Target: UniProt O42275
Assay: biochemical
Format: biochemical
Conditions: Ellman method, mean ± SD (n = 3), read-out: IC50 value AChE inhibitory activity
Description: The anticholinesterase activity of the 3-arylbenzofuranone compounds was determined by the method of Ellman et al.[16] with slight modifications. […] Acetylthiocholine iodide and butyrylthiocholine iodide were used as substrates respectively. 5,5′-Dithiobis(2-nitrobenzoic acid) (DTNB) was used as the chromophoric reagent. […] BChE inhibitory activity was assessed similarly using butyrylthiocholine iodide as the substrate. […]
Answer format reminder: number followed by unit.

compound: COc1ccc2c(c1O)OC(=O)C2c1cc(OC)c(OC)c(OC)c1 (centres unmarked)
test-target: UniProt O42275
IC50: 2.03 µM
--
compound: COc1ccc2c(c1)C(c1cc(OC)c(OC)c(OC)c1)C(=O)O2 (centres unmarked)
test-target: UniProt O42275
IC50: 2.54 µM
--
compound: COc1ccc(C2C(=O)Oc3cc(O)ccc32)cc1 (centres unmarked)
test-target: UniProt O42275
IC50: 50.6 µM
--
compound: COc1ccc(C2C(=O)Oc3ccc(O)cc32)cc1 (centres unmarked)
test-target: UniProt O42275
IC50: 4.15 µM

Name the recorded IC50 for COc1ccc(C2C(=O)Oc3c2ccc(OC)c3O)cc1 (centres unmarked) . 9.24 µM

* * *

Please go through the items and note down their pIC50.
Target: MAO-B (Rattus norvegicus, UniProt P19643)
Construct: The crude enzyme was extracted from the liver of 200–250 g of Wistar rats; from tissue; host or cells: liver of Wistar rats (crude enzyme)
Sequence (P19643 1-520): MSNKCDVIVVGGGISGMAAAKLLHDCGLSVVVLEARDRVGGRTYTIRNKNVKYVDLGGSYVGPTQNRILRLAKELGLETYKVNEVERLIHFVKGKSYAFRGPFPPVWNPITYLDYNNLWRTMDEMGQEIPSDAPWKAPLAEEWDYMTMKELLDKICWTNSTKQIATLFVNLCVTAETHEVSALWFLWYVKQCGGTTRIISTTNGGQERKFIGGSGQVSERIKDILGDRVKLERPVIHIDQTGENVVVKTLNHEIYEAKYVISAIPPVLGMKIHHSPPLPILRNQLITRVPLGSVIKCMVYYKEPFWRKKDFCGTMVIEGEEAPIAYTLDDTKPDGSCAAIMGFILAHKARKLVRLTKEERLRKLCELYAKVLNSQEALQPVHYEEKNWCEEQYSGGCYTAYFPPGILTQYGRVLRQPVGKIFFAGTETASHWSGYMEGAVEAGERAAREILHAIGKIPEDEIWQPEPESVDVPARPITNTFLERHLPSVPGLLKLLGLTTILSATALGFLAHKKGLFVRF
Assay: In vitro MAO inhibitory activity (Holt method, crude enzyme from rat liver)
Type: biochemical, Wistar rat
Conditions: rat liver crude enzyme, 4-(trifluoromethyl)benzylamine substrate, mean ± SD (n = 3); read-out: IC50 value MAO-B inhibitory activity
Experimental: The MAO inhibitory activity of the 3-arylbenzofuranone compounds was determined by the method of Holt et al.[17] with slight modifications. […] The crude enzyme protein content was determined by the Bradford method using a Bradford Protein Assay Kit (Beyotime). […] The absorbance was measured at 490 nm using a microplate reader, and the inhibition rate of MAO and the IC50 value of each sample were calculated according to the formula. […]
Give bare numbers, as −log10 of the molar value.

compound: COc1cc(C2C(=O)Oc3cc(O)ccc32)cc(OC)c1OC (stereo not shown)
property-name: pIC50
endpoint-value: 4.41

compound: COc1ccc2c(c1)OC(=O)C2c1ccc(OC)c(OC)c1OC (stereo not shown)
property-name: pIC50
endpoint-value: 3.74

compound: COc1ccc(C2C(=O)Oc3cc(O)ccc32)cc1 (stereo not shown)
property-name: pIC50
endpoint-value: 4.21

compound: COc1ccc(C2C(=O)Oc3cc(OC)c(O)cc32)cc1 (stereo not shown)
property-name: pIC50
endpoint-value: 4.04

compound: COc1ccc2c(c1)C(c1ccc(OC)c(OC)c1OC)C(=O)O2 (stereo not shown)
property-name: pIC50
endpoint-value: 4.08

compound: COc1ccc(C2C(=O)Oc3ccc(O)cc32)cc1 (stereo not shown)
property-name: pIC50
endpoint-value: 4.83

I would be grateful if you could provide pIC50 for each of the following entries.
1. COc1cc2c(cc1O)C(c1cc(OC)c(OC)c(OC)c1)C(=O)O2 (stereo not shown) [Compound 23]
2. COc1ccc2c(c1)C(c1cc(OC)c(OC)c(OC)c1)C(=O)O2 (stereo not shown)
3. COc1ccc(C2C(=O)Oc3c2ccc(OC)c3O)cc1 (stereo not shown)

[4.36, 3.67, 4.39]

* * *

Biological target: AChE from electric eel (Electrophorus electricus, UniProt O42275)
Sequence (O42275 24-633): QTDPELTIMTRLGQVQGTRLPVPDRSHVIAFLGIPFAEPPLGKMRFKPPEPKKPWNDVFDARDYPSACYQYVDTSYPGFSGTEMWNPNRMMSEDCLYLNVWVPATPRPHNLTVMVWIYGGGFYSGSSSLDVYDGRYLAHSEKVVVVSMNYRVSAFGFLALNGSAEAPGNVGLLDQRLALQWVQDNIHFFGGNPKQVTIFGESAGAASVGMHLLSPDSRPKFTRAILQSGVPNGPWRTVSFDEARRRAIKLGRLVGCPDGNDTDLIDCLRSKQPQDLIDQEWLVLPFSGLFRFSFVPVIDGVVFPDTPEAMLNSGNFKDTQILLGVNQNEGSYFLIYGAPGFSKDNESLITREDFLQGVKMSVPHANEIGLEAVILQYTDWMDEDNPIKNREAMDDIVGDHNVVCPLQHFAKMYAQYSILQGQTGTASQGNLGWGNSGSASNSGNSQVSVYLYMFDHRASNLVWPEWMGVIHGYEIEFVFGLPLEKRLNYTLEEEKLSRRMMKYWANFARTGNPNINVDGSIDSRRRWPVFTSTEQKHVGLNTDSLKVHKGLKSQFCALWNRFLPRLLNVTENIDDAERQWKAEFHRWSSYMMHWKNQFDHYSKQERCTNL
Assay: biochemical
Assay type: biochemical
Conditions: Ellman method, mean ± SD (n = 3), read-out: IC50 value AChE inhibitory activity
pIC50: −log10 of the molar value.
Rule: pIC50 of 5 or more gives YES; anything lower gives NO.

compound: COc1cc2c(cc1O)C(c1cc(OC)c(OC)c(OC)c1)C(=O)O2 (stereo not drawn) [Compound 23]
test-target: AChE from electric eel (Electrophorus electricus, UniProt O42275)
category: NO
//
compound: COc1ccc2c(c1)OC(=O)C2c1ccc(OC)c(OC)c1OC (stereo not drawn) [Compound 18]
test-target: AChE from electric eel (Electrophorus electricus, UniProt O42275)
category: NO
//
compound: COc1ccc2c(c1)OC(=O)C2c1cc(OC)c(OC)c(OC)c1 (stereo not drawn) [Compound 16]
test-target: AChE from electric eel (Electrophorus electricus, UniProt O42275)
category: YES

Dear colleague, could you confirm whether COc1cc(C2C(=O)Oc3cc(O)ccc32)cc(OC)c1OC (stereo not drawn) [Compound 11] has pIC50 at or above 5? NO

Dear colleague, could you confirm whether COc1ccc(C2C(=O)Oc3c2ccc(OC)c3O)cc1OC (stereo not drawn) [Compound 12] has pIC50 at or above 5? YES

Dear colleague, could you confirm whether COc1cc2c(cc1O)C(c1cc(OC)c(OC)c(OC)c1)C(=O)O2 (stereo not drawn) [Compound 21] has pIC50 at or above 5? YES

Dear colleague, could you confirm whether COc1ccc(C2C(=O)Oc3cc(OC)ccc32)cc1 (stereo not drawn) [Compound 3] has pIC50 at or above 5? NO

Dear colleague, could you confirm whether COc1ccc(C2C(=O)Oc3cc(OC)c(OC)cc32)cc1 (stereo not drawn) [Compound 10] has pIC50 at or above 5? NO

Dear colleague, could you confirm whether COc1ccc2c(c1)C(c1ccc(OC)c(OC)c1OC)C(=O)O2 (stereo not drawn) [Compound 17] has pIC50 at or above 5? NO
